target: KtrAB (Bacillus subtilis); construct: gene ktrB; purified complex of dimeric membrane protein KtrB and octameric cytoplasmic KtrA ring, reconstituted in liposomes; with Ktr system potassium uptake protein A; assay: ACMA fluorescence K+ efflux assay in proteoliposomes, 96-well, Hill fit of final fluorescence; format: biochemical
Measurement label: pIC50
Formally, pIC50 is defined as -log10 of the concentration c, with c in mol/L.

Hi! What's the reported pIC50 for COc1ccc(Br)cc1CNCCc1cccc(F)c1 on KtrAB (Bacillus subtilis)?
5.40

* * *

biological target: KtrAB (Bacillus subtilis, UniProt O32081); construct: gene ktrB; purified complex of dimeric membrane protein KtrB and octameric cytoplasmic KtrA ring, reconstituted in liposomes; with Ktr system potassium uptake protein A; assay: ACMA fluorescence K+ efflux assay in proteoliposomes, 96-well, Hill fit of final fluorescence; type: biochemical; settings: read-out: KI
Sequence (O32081 whole entry): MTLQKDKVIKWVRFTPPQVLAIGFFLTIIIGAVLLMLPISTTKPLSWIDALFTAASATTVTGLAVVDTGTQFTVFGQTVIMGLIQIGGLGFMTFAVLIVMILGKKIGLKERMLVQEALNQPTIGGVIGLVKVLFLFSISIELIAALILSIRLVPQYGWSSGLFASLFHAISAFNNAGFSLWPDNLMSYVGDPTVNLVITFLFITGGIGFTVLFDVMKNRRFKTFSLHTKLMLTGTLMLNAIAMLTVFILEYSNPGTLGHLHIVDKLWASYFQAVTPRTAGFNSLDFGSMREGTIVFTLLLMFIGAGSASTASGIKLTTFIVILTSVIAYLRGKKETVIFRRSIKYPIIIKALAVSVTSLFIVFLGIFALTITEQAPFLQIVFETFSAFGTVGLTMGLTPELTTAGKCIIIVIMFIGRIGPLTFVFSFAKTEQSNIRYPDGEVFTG
Sequence (O32080 whole entry, further chain): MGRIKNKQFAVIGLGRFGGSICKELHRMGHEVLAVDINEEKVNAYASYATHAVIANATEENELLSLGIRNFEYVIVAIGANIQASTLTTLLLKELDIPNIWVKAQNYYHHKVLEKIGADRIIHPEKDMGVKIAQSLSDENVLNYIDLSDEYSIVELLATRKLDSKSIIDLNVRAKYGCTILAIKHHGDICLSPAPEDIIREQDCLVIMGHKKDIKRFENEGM
# Lookup of reported pIC50 keyed by entry
To interpret pIC50, take it as minus log10 of a concentration measured in moles per litre.

Compound	pIC50
Cc1cc(C)c(OCC(O)CNC(C)(C)CC(C)(C)C)c(C)c1 (stereo not shown)	5.70
CCCN1CCC(N(CCc2ccccc2)Cc2ccccc2)CC1	6.00
Cc1cc(C)c(C)c(OCCCCN2CCCCC2)c1	5.70
CC1CCCC(C)N1CC(O)COc1ccc(Cl)cc1 (stereo not shown)	5.52
CCN(CC)CCn1c(=N)n(CC(=O)C23CC4CC(CC(C4)C2)C3)c2ccccc21	6.10

Recorded pIC50 of OC(CN1CCCCCC1)CN(c1ccccc1)c1ccccc1 (stereo not shown) , please.
5.70

What measured pIC50 goes with COc1ccc(CN2CCN(c3cccc(C)c3C)CC2)c(OC)c1 ?
6.00

* * *

molecular target: KtrB (Bacillus subtilis, UniProt O32081); construct: purified membrane subunit KtrB alone (no KtrA), reconstituted in liposomes; dimer; assay: ACMA fluorescence K+ efflux assay in proteoliposomes, 96-well, Hill fit of final fluorescence; format: biochemical; details: no nucleotide; KtrB alone; pH 8.0; KI defined as constant of 50% inhibition; read-out: KI
Sequence (O32081 whole entry): as the sequence (O32081 whole entry) above
Measurement label: IC50

Entry O=C(Nc1ccc(Cl)cc1)Nc1cccc(C(F)(F)F)c1 : reported IC50 = ?
500 nM

* * *

biological target: NaKΔN19/F92A (Bacillus cereus, UniProt Q81HW2, F92A); construct: gene BC_0669; conditions: read-out: KI; no nucleotide; pH 8.0; KI defined as constant of 50% inhibition
Sequence (Q81HW2 19-110 F92A): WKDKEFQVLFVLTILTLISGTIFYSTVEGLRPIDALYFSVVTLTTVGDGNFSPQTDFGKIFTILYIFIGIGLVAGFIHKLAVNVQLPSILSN
Reported IC50 by item:
Please give a number only; it is taken to be in µM.

Molecule	Measurement label	Endpoint unit	Measured result
COc1ccc(CN2CCN(c3cccc(C)c3C)CC2)c(OC)c1 [compound 6, compound #6]	IC50	µM	16

# evaluate next
Item: Cc1cc(C)c(OCC(O)CNC(C)(C)CC(C)(C)C)c(C)c1 (centres unmarked) [compound 1, compound #1] Test system: NaKΔN19/F92A (Bacillus cereus, UniProt Q81HW2, F92A) Read-out: IC50 Value: ?
14

* * *

biological target: KtrAB (Bacillus subtilis, UniProt O32081); construct: gene ktrB; purified complex of dimeric membrane protein KtrB and octameric cytoplasmic KtrA ring, reconstituted in liposomes; with Ktr system potassium uptake protein A; assay: ACMA fluorescence K+ efflux assay in proteoliposomes, 96-well, Hill fit of final fluorescence; type: biochemical; settings: 0.1 mM ATP (active state), 0.5 mM MgCl2; pH 8.0; KI defined as constant of 50% inhibition; read-out: KI
Measurement label: IC50 (µM)
All answers are understood in µM, so give the number only.

Looking for the measured IC50 of O=C(Nc1ccc(Cl)cc1)Nc1cccc(C(F)(F)F)c1 , can you help?
8

* * *

biological target: KtrB (Bacillus subtilis, UniProt O32081); construct: purified membrane subunit KtrB alone (no KtrA), reconstituted in liposomes; dimer; assay: ACMA fluorescence K+ efflux assay in proteoliposomes, 96-well, Hill fit of final fluorescence; assay type: biochemical
Measurement label: pIC50
Lab note: report pIC50 as minus log10 of the concentration in molar units, number only.

Entry under review: COc1ccc(Br)cc1CNCCc1cccc(F)c1 [compound 39, compound #39] . Reported pIC50?
5.42
